B1: POU domain, class 5, transcription factor 1, residues 134 to 212; numbered along this chain, Q01860 (parent)
chain: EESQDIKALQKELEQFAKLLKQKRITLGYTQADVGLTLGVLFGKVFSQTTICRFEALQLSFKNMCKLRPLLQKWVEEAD

variants of: B1; experiment: abundance fitness (aPCA) (normalised: wild type 0, dead -1); higher = more abundant; growth selection in yeast, the domain comes from the species named; conditions: Homo sapiens
measurement type: abundance fitness
Keep it simple and answer with nothing but the number.

Examples with their reported abundance fitness follow.
>>> print(df.to_string())
   variant_string   measurement_type  quantitative_result
0            L71T  abundance fitness               -0.246
1            G28T  abundance fitness               -0.738
2            G35T  abundance fitness               -0.697

Input: Annotate the variant A32R with its measured abundance fitness.
Output: 0.066

Input: Annotate the variant F42Q with its measured abundance fitness.
Output: -0.875

Input: Annotate the variant R53D with its measured abundance fitness.
Output: -0.027

Input: Annotate the variant P69A with its measured abundance fitness.
Output: -0.252

Input: Annotate the variant L36R with its measured abundance fitness.
Output: 0.235

Input: Annotate the variant Q4G with its measured abundance fitness.
Output: -0.064

Input: Annotate the variant Y29H with its measured abundance fitness.
Output: 0.148

Input: Annotate the variant A56C with its measured abundance fitness.
Output: -0.098
